# Target Of Assay: Bile acid receptor (Homo sapiens) (UniProt Q96RI1)
# Sequence (Q96RI1 whole entry, looked up): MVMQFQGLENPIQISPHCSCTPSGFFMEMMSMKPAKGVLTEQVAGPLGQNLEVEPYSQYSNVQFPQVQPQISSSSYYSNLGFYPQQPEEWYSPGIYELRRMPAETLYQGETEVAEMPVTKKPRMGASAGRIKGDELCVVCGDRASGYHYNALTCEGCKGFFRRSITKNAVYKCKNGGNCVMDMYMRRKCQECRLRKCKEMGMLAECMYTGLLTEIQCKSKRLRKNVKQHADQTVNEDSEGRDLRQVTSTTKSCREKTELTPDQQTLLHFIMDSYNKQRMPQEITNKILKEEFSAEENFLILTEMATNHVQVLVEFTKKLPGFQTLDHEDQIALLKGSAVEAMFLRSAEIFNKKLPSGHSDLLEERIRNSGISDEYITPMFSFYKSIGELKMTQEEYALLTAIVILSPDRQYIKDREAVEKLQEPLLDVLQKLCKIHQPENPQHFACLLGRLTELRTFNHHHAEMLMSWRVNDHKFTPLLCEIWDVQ
# Test Details: ATG_IR1_CIS: Attagene CIS-FACTORIAL HepG2 Assay for human Nuclear Receptor Subfamily 1 Group H Member 4 (NR1H4), IR1 submotif (AID 2282946)
# Protocol Conditions: IR1 reporter transcription, actives raise or lower the signal
Calls of active or inactive are those of the source. The calls were made as follows: active = hit-call score of the fitted dose curve at least 0.9, where 1 is the maximum; inactive = score below 0.9.
Write down the outcome that applies. Available outcomes: active, inactive

Query :: Kindly provide the recorded test outcome for the following compound: `CC(C)(c1ccccc1)c1ccc(O)c(C(C)(C)c2ccccc2)c1`
Result :: active

Query :: Kindly provide the recorded test outcome for the following compound: `[O-][Cl+2]([O-])O`
Result :: inactive

Query :: Kindly provide the recorded test outcome for the following compound: `CCNc1nc(NC(C)(C)C)nc(SC)n1`
Result :: inactive

Query :: Kindly provide the recorded test outcome for the following compound: `Cn1sc(Cl)cc1=O`
Result :: inactive

Query :: Kindly provide the recorded test outcome for the following compound: CC(C)C1CCC(Cc2ccc(Cl)cc2)C1(O)Cn1cncn1 (centres undefined)
Result :: inactive

Query :: Kindly provide the recorded test outcome for the following compound: `OCc1ccco1`
Result :: inactive

Query :: Kindly provide the recorded test outcome for the following compound: `CC(=O)[O][Hg][c]1ccccc1`
Result :: inactive

Query :: Kindly provide the recorded test outcome for the following compound: `Oc1c(I)cc(I)cc1I`
Result :: inactive

Query :: Kindly provide the recorded test outcome for the following compound: `CN(C)P(=O)(N(C)C)N(C)C`
Result :: inactive

---

# Read-out: Transforming growth factor beta 1 (TGFb1), TGFB1 (gene 7040)
# Test Details: BSK_KF3CT_TGFb1: BioMAP Diversity Plus: KF3CT Assay for Transforming growth factor beta 1 (TGFb1) Biomarker Activity (AID 2283072)
# Protocol Conditions: primary human keratinocytes with fibroblasts; actives raise or lower the signal
Calls of active or inactive are those of the source. The calls were made as follows: active = hit-call score of the fitted dose curve at least 0.9, where 1 is the maximum; inactive = score below 0.9.
Write down the outcome that applies. Available outcomes: 1 (active), 0 (inactive)

Record excerpt, results attached:
>>> assigned_class("Nc1ncc([N+](=O)[O-])s1")
0
>>> assigned_class("C(=NC1CCCCC1)=NC1CCCCC1")
1
>>> assigned_class("NC(=O)O")
0
>>> assigned_class("O=C(OC1CCCCC1)c1ccccc1C(=O)OC1CCCCC1")
1

Query :: Kindly provide the recorded test outcome for the following compound: `CC(C)(OO)c1ccccc1`
Result :: 0

Query :: Kindly provide the recorded test outcome for the following compound: `C[C@]12CCC(=O)C[C@@H]1CC[C@@H]1[C@@H]2CC[C@]2(C)[C@@H](O)CC[C@@H]12`
Result :: 0

Query :: Kindly provide the recorded test outcome for the following compound: `O=C(O)C(Cl)(Cl)Cl`
Result :: 0

Query :: Kindly provide the recorded test outcome for the following compound: `CC1(C)Cc2cccc(O)c2O1`
Result :: 0

Query :: Kindly provide the recorded test outcome for the following compound: `O=S(=O)(c1ccc(Cl)cc1)c1ccc(Cl)cc1`
Result :: 0

Query :: Kindly provide the recorded test outcome for the following compound: `O=Cc1cccc(Oc2ccccc2)c1`
Result :: 0

Query :: Kindly provide the recorded test outcome for the following compound: `CC(C)(C)c1cc(O)ccc1O`
Result :: 1

Query :: Kindly provide the recorded test outcome for the following compound: `Oc1c(I)cc(I)cc1I`
Result :: 1

Query :: Kindly provide the recorded test outcome for the following compound: `OCc1ccco1`
Result :: 0

Query :: Kindly provide the recorded test outcome for the following compound: `CCCCCCCCc1ccc(O)cc1`
Result :: 1

Query :: Kindly provide the recorded test outcome for the following compound: `O=c1[nH]c(=O)[nH]c(=O)[nH]1`
Result :: 0

---

# Read-out: Cytochrome P450 (CYP1A2), CYP1A2 (gene 1544)
# Test Details: LTEA_HepaRG_CYP1A2: Life Technologies and Expression Analysis (LTEA) Assay for Cytochrome P450 (CYP1A2) using HepaRG (AID 2283479)
# Protocol Conditions: mRNA level, 48 h; actives raise or lower the signal
The source made the active and inactive calls. The calls were made as follows: active = hit-call score of the fitted dose curve at least 0.9, where 1 is the maximum; inactive = score below 0.9.
Write down the outcome that applies. Available outcomes: 1 for active, -1 for inactive

Record excerpt, results attached:
>>> assigned_class("CCCCCCCCc1ccc(O)cc1")
-1
>>> assigned_class("CC(=O)[O][Hg][c]1ccccc1")
1
>>> assigned_class("CCOP(=S)(OCC)SCSP(=S)(OCC)OCC")
1
>>> assigned_class("CCC(C)(C)c1ccc(O)c(C(C)(C)CC)c1")
1
>>> assigned_class("Cc1ccccc1N")
-1

Query :: Kindly provide the recorded test outcome for the following compound: `C[C@]12CCC(=O)C[C@@H]1CC[C@@H]1[C@@H]2CC[C@]2(C)[C@@H](O)CC[C@@H]12`
Result :: 1

Query :: Kindly provide the recorded test outcome for the following compound: `CC(C)(c1ccccc1)c1ccc(O)c(C(C)(C)c2ccccc2)c1`
Result :: -1

Query :: Kindly provide the recorded test outcome for the following compound: `CCN1CCC2(CC1)COc1cc3c(cc12)N(C(=O)c1ccc(-c2ccc(-c4nnc(C)o4)cc2C)cc1)CC3`
Result :: -1

Query :: Kindly provide the recorded test outcome for the following compound: `Cn1sc(Cl)cc1=O`
Result :: -1

Query :: Kindly provide the recorded test outcome for the following compound: `O=C(Nc1ccc2[nH]ccc2c1)c1cc2cc(F)ccc2n1Cc1cccc(F)c1`
Result :: 1

Query :: Kindly provide the recorded test outcome for the following compound: CCC(=O)C(CC(C)N(C)C)(c1ccccc1)c1ccccc1 (centres undefined)
Result :: 1

---

# Test Details: APR_HepG2_CellCycleArrest_72hr: Apredica 72-hour HepG2 Assay for Cell Cycle Arrest (AID 2282914)
# Protocol Conditions: high-content imaging, actives raise or lower the signal
Calls of active or inactive are those of the source. How the source made its calls: active means hit-call score of the fitted dose curve at least 0.9, where 1 is the maximum; inactive means score below 0.9.
Write down the outcome that applies. Available outcomes: 1 = active, 0 = inactive

Record excerpt, results attached:
>>> assigned_class("NC(=O)O")
1
>>> assigned_class("CC(C)(C)CC(C)(C)c1ccc(O)cc1")
1
>>> assigned_class("ClC1(Cl)C2(Cl)C3(Cl)C4(Cl)C(Cl)(Cl)C5(Cl)C3(Cl)C1(Cl)C5(Cl)C24Cl (stereo unspecified)")
0
>>> assigned_class("O=C(O)C(F)(F)C(F)(F)C(F)(F)C(F)(F)C(F)(F)C(F)(F)F")
0
>>> assigned_class("CC(C)(c1ccccc1)c1ccc(O)c(C(C)(C)c2ccccc2)c1")
0
>>> assigned_class("C=CC(=O)OCCCCCC(C)C")
1
>>> assigned_class("CN(C)N=O")
0
>>> assigned_class("Cc1ccccc1N")
0
>>> assigned_class("CC(=O)[O][Hg][c]1ccccc1")
1
>>> assigned_class("Cn1sc(Cl)cc1=O")
0

Query :: Kindly provide the recorded test outcome for the following molecule: O=C1C2(Cl)C3(Cl)C4(Cl)C(Cl)(Cl)C5(Cl)C3(Cl)C1(Cl)C5(Cl)C24Cl (stereo unspecified)
Result :: 1

Query :: Kindly provide the recorded test outcome for the following molecule: `CC(C)(OO)c1ccccc1`
Result :: 1

Query :: Kindly provide the recorded test outcome for the following molecule: `O=C(O)C(F)(F)C(F)(F)C(F)(F)C(F)(F)C(F)(F)C(F)(F)C(F)(F)C(F)(F)C(F)(F)C(F)(F)F`
Result :: 1

Query :: Kindly provide the recorded test outcome for the following molecule: CCC(=O)C(CC(C)N(C)C)(c1ccccc1)c1ccccc1 (stereo unspecified)
Result :: 0

Query :: Kindly provide the recorded test outcome for the following molecule: `CCCCCCCCc1ccc(O)cc1`
Result :: 1

Query :: Kindly provide the recorded test outcome for the following molecule: `CCC(C)(C)c1ccc(O)c(C(C)(C)CC)c1`
Result :: 1

Query :: Kindly provide the recorded test outcome for the following molecule: `C[C@@H]1C[C@@H]([C@H](O)CC2CC(=O)NC(=O)C2)C(=O)[C@@H](C)C1`
Result :: 1

Query :: Kindly provide the recorded test outcome for the following molecule: `C[C@]12CCC(=O)C[C@@H]1CC[C@@H]1[C@@H]2CC[C@]2(C)[C@@H](O)CC[C@@H]12`
Result :: 0

Query :: Kindly provide the recorded test outcome for the following molecule: `ClCC(Cl)CCl`
Result :: 0

Query :: Kindly provide the recorded test outcome for the following molecule: `CC(C)(C)c1cc(O)ccc1O`
Result :: 0

Query :: Kindly provide the recorded test outcome for the following molecule: CC12CC1(C)C(=O)N(c1cc(Cl)cc(Cl)c1)C2=O (stereo unspecified)
Result :: 0

---

# Target Of Assay: human Retinoid X Receptor beta (RXRb), RXRB (gene 6257) (UniProt P28702)
# Sequence (P28702 whole entry, looked up): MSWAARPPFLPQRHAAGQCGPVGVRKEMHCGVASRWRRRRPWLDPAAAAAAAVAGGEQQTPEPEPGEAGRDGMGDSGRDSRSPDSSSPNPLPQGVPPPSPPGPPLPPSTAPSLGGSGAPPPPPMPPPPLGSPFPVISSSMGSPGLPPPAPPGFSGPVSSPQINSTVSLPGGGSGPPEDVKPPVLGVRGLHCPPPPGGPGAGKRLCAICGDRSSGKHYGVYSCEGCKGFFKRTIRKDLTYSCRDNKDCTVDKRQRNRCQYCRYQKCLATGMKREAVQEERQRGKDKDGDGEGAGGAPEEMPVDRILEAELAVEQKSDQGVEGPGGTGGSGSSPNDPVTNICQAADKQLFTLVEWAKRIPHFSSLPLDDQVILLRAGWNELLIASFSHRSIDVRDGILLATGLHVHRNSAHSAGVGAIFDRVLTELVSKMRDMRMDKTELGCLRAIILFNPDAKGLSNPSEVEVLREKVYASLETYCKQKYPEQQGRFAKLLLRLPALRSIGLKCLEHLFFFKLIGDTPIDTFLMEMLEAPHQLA
# Test Details: ATG_RXRb_TRANS: Attagene TRANS-FACTORIAL HepG2 Assay for human Retinoid X Receptor beta (RXRb) (AID 2283013)
# Procedure: ATG_TRANS is a cell-based, multiplexed-readout assay that uses HepG2, a human liver cell line, with measurements taken at 24 hours after chemical dosing in a 24-well plate.ATG_RXRb_TRANS is one of 30 assay component(s) measured or calculated from the ATG_TRANS assay. […] This assay endpoint, ATG_RXRb_TRANS, was analyzed in the positive analysis fitting direction relative to DMSO as the negative control and baseline of activity. […]
Results filed as inconclusive are left out. Activity calls are given as the source filed them. How the source made its calls: active means hit-call score of the fitted dose curve at least 0.9, where 1 is the maximum; inconclusive means response in the unintended direction; inactive means score below 0.9.
Write down the outcome that applies. Available outcomes: active, inactive

Record excerpt, results attached:
>>> assigned_class("CCOP(OCC)OCC")
"inactive"
>>> assigned_class("O=C(O)Cc1ccccc1")
"inactive"
>>> assigned_class("NC(=O)O")
"inactive"

Query :: Kindly provide the recorded test outcome for the following compound: CC(C#N)CCC#N (stereo not drawn)
Result :: inactive

Query :: Kindly provide the recorded test outcome for the following compound: CCOP(=S)(OCC)Oc1ccc(S(C)=O)cc1 (stereo not drawn)
Result :: inactive

Query :: Kindly provide the recorded test outcome for the following compound: `Nc1ccc(Cl)cc1C(=O)c1ccccc1`
Result :: active

Query :: Kindly provide the recorded test outcome for the following compound: `CCC[CH2][Sn]([CH2]CCC)([CH2]CCC)[O]C(=O)c1ccccc1`
Result :: active

Query :: Kindly provide the recorded test outcome for the following compound: `O=C(O)C(Cl)(Cl)Cl`
Result :: inactive

Query :: Kindly provide the recorded test outcome for the following compound: `O=c1[nH]c(=O)[nH]c(=O)[nH]1`
Result :: inactive

Query :: Kindly provide the recorded test outcome for the following compound: CC(C)(c1ccc(OCC2CO2)cc1)c1ccc(OCC2CO2)cc1 (stereo not drawn)
Result :: inactive

Query :: Kindly provide the recorded test outcome for the following compound: `C=CCc1ccc(OC)cc1`
Result :: inactive

Query :: Kindly provide the recorded test outcome for the following compound: `CCOP(=O)(CN(CCO)CCO)OCC`
Result :: inactive

Query :: Kindly provide the recorded test outcome for the following compound: `CCOP(=S)(OCC)Oc1nc(Cl)c(Cl)cc1Cl`
Result :: active

Query :: Kindly provide the recorded test outcome for the following compound: `COc1ccccc1OC`
Result :: inactive

Query :: Kindly provide the recorded test outcome for the following compound: `COP(=S)(OC)Oc1c(Cl)cc(C)cc1Cl`
Result :: active

Query :: Kindly provide the recorded test outcome for the following compound: `CC1(C)Cc2cccc(O)c2O1`
Result :: inactive

Query :: Kindly provide the recorded test outcome for the following compound: `Cc1ccc2ccccc2c1C`
Result :: active

Query :: Kindly provide the recorded test outcome for the following compound: CC12CC1(C)C(=O)N(c1cc(Cl)cc(Cl)c1)C2=O (stereo not drawn)
Result :: inactive

Query :: Kindly provide the recorded test outcome for the following compound: `Nc1cccc(Cl)c1`
Result :: inactive

Provenance of the data: PubChem BioAssay (EPA / NIEHS)
